tested on: p53; experiment: p53 induction by immunoblotting (IB), H460 and/or HCT116^+/+ cells (line not singled out); type: cell-based, human; conditions: synthetic analogs, IB, 0.5, 2, 10 μM, 18 hrs, compared to INZ
recorded_endpoint: p53 induction / activation

CCOC(=O)Cn1c2ccccc2c2nnc(SC(CC)C(=O)N3c4ccccc4Sc4ccccc43)nc21 (stereo not shown) [Compound 28]	essentially inactive
CCC(Sc1nnc2c3ccccc3n(CC(=O)O)c2n1)C(=O)N1c2ccccc2Sc2ccccc21 (stereo not shown) [Compound 29]	essentially inactive

* * *

test system: H460; assay: Cell viability assay (3-day WST-8), H460; assay type: cell-based, human; conditions: H460, p53 wild type, 72 hrs, average of triplicates; read-out: EC50 cell growth inhibition
recorded_endpoint: EC50
Hi, when you answer, please include the unit after the number. Thanks!

Problem: Entry under review: CCC(Sc1nnc2c3ccccc3n(CCO)c2n1)C(=O)N1c2ccccc2Sc2ccccc21 (stereo not shown) . Reported EC50?
Result: 3.5 µM

* * *

test system: H1299; assay: Cell viability assay (3-day WST-8), H1299 (p53 null); details: Homo sapiens, NCI-H1299, 72 h, read-out: EC50 cell growth inhibition
recorded_endpoint: EC50 (µM)
Lab book: enter the figure in µM, no units written.

Problem: I'm curious: which EC50 was measured for CCC(Sc1nnc2c(n1)[nH]c1ccccc12)C(=O)N1c2ccccc2Sc2ccccc21 (stereo not shown) [INZ, reference compound] tested on H1299?
Result: 11.6
